Let's look at some molecules and their measured IC50.
Test system: SJGBM2
Experiment: Cell viability, pediatric glioma SJGBM2
Assay type: cell-based
Kindly answer with a numeric value in nM, unit omitted.

CC1=C(O)C(=O)C=C2C1=CC=C1[C@@]2(C)CC[C@@]2(C)[C@@H]3C[C@](C)(C(=O)O)CC[C@]3(C)CC[C@]12C [Celastrol]; 1190
CC1(C)CC[C@]2(C(=O)O)CC[C@]3(C)[C@H](C(=O)C=C4[C@@]5(C)C=C(C#N)C(=O)C(C)(C)[C@@H]5CC[C@]43C)[C@@H]2C1 [CDDO]; 2370

Record summary for Cc1sc2c(c1C)C(c1ccc(Cl)cc1)=NC(CC(=O)OC(C)(C)C)c1nnc(C)n1-2 (centres unmarked) [JQ-1] : reported IC50 = 1580

Record summary for Cc1sc2c(c1C)C(c1ccc(Cl)cc1)=NC(CC(=O)NCCCOCCOCCOCCCNC(=O)[C@]13CCC(C)(C)C[C@H]1[C@H]1C(=O)C=C4[C@@]5(C)C=C(C#N)C(=O)C(C)(C)[C@@H]5CC[C@@]4(C)[C@]1(C)CC3)c1nnc(C)n1-2 (some centres unmarked) [CDDO-JQ1] : reported IC50 = 635

Record summary for CC1=C(O)C(=O)C=C2C1=CC=C1[C@@]2(C)CC[C@@]2(C)[C@@H]3C[C@](C)(C(=O)NCCCOCCOCCOCCCNC(=O)CC4N=C(c5ccc(Cl)cc5)c5c(sc(C)c5C)-n5c(C)nnc54)CC[C@]3(C)CC[C@]12C (some centres unmarked) [CS-JQ1] : reported IC50 = 263
